protocol.description: soluble fraction after stress (log2 fold change); higher = more stays soluble; pooled small domains, quantitative proteomics
experimental.context: stress: 50 degC
# key: entry, value: soluble fraction (log2)
readout.label: soluble fraction (log2)

- HMRKPISQEIVDEVLKLAKNNPDWGYDRIAGVMKYLKYDVSATTVRHILDDNGIVPDPERRLR: 0.333
- HMSESAGKALDILFYLARVEDEVSLARLSKETGMNKATALRYLAVLESWGVVEKRPSGWSLGLSLFELGSK: -2.13
- HMQMEYEKAIAYILDKIKSGELSIGSKLPAERVIADTLHIGRNSTREALSILHGMGMVDRVHGSGNYISEH: -0.421
- HMAQSEDLMVMAQRILGGPEAQSFFQAEATRQGLAGFLPEPIPDFLQRLERKLSGSVGSATAHAMVAQTMG: -0.179

----------
protocol.description: soluble fraction after stress (log2 fold change); higher = more stays soluble; pooled small domains, quantitative proteomics
experimental.context: stress: 50 degC
Quick rule: soluble fraction (log2) of at least -0.2 means true (1), below that means false (0).

* HMTNATVGQIKKLARASILYGNSNLSGNRYTYKANTTVTILQNISSNVDKIRVNVTGRVAYIDNSNYSSST | false (0)
* HMLKLTDRQKVILSILMSDGEKTASWIASQLGVGLRSVQLDLSYLRNNGFIKKASKSTHSAWIVLKK | false (0)
* HMDAEELNSKAKDEFTWLEDDESETNLEYRKMVSSEDMAIVAKVAPALAAKLKYQLAHAATNMV | true (1)
* HMISKRFQVDEENSNNRVDIFLANNLDSISRGIVQQLILDGKVLVNGETVKRNHLLKTNDEVDISFEI | true (1)
* HMHRFAVLDTVREVAAGGVAATLSIGVGRDADSFDALFKNASMALEMALSRGGDQAVVKDRMNFQFYGG | true (1)
* HMSKQKRIKYFLSILNIKSIKQFRKKDLDYFYQKRFIEIQKSSKDKKLVSNQLIELNAAKEYLDEIDFEN | false (0)
* HMAASTPGTVTGSVVNVRPDPSTNNDRIGVIYQGTKVEILAQVGEWYNIQFGPVSGWVHKDYISTGA | true (1)
* HMPLTEMAVRKHLSAELAQKGYTIDPRALEILLQRTNTNLTAIANELPKLLLVAEDKQITVNEVSAM | true (1)
* HMQAKNGTVTGSVVNVRGGAGTQYAVKGKASRGTKVTILGQQSSWLNVRLDNGVTGWIHADYVQISE | true (1)
* HMLPITPGQKYKFVVKSAEEAAAIIRDKLGEMAQVISVRQVEGEGLARFLKSPKLEIIAQVPVA | true (1)
* HMELEKIRPDLDGLEIMAILGISPSPIVGRAYQYLLDLRMDRGPLGPDAAKAELLNWWSLNQPK | false (0)
* HMRAEELEQFVERLKNEVMNNFPLKELSDNELREKIENLVEIRLANVYVSIEQRVAIAEQIYSSIR | true (1)
* HMQTTITITNTVTGQKAQFPPPFNPMSLSKIGVDETFEKEVFVDGVDTFGYGLDGYLTFYELKDFLRSYQ | false (0)
* HMGIKLSDRQMQIVEIVKSQQPITSEQVAERLNLTRAALRSDLSILTMAGILEARPKVGYSLTGR | false (0)
* HMATRAEQMAKTHQAILDTARELFLRNGYDATSTRDIANAIGITQPALYHHFKDKEVIFLAVI | true (1)
* HMLPGERFKVKIAQAGKEKKQGIGYLNDGTMVVIENGIEKVGEEVEAVVIKVIQSSAGKIIFSEVAK | true (1)
* HMHINLEGLKKIDFRKKIGFLFGSEASGLSNKEVSYANYTLQIPTNINFKSLNLSHSLIIIAQFISSLLNS | false (0)
* HMGPSLIRIASNPVAEVFIDGTRVGTTPFEMPADGTLKTVRLTAKDHDDLVVPLRSMKSMEIMLTLRRI | false (0)
* HMGESFEELAREISDDTGSKTEGGETGLFPRGVMAPQFEEAAFLLKVGDISEPIRTKFGYHIIKLKEIKP | true (1)
* HMKIEETLGKTAQVYIPIPQYLSGIGKVTLSVRGSLRELDAMTEEEKIPSNTIVRIVKVQDQVLFVKRA | false (0)
* HMDEETVALQKAIHSLPPKQQAVFNMRYYDEMSFREIADANETTESSAKANYHFAKAKIIEQMKR | true (1)
* HMEKEEELNSIRPDLDGNDIMEILGVPAGPKVGKAYNYLLNVRLDEGPLSRAEAISRLEAWWENQ | false (0)
* HMDETELLLQKAIATLPDKQRVVFNLKYFDEMKYEEMSELLETSVGALKASYHLAVKKIEQFFHDA | false (0)
* HMEMTSREIIKRLEEDGWYHVKTTGDHYQMKHPTKPGKVTIVHPAKDLSIGTLRSIEKQSGVRL | true (1)
* HMKAILHQESRSGFANATVIGGLDKFLDTNWNQLSKYIKKIETPYSDRSLEDRKIWISTILGILSTEI | true (1)
* HMARAGKLAQDMAVWTKETMLNTERNFISLRHFKRELLRRTLAPGESEQTVRAMEEAGYIQVKDGLVFPIK | false (0)
* HMVEREYRLEVPPEAEGKRLDQFLVNQPVQLSRSQVQHLIQNGLVLVNAKTRRSSYRVHTGDIIEMQVPA | true (1)
* HMTASSYMGMQLGRLEELLKKEVLSLSEKTELKDLISDFDKIPEVVSPKIIGRYLQLKNQHFAKINA | true (1)
* HMLDVGDQLVKKLKDNDSLDFHFVNSKEANKGLKDGDYYMVITIPSNFSKNATTLLDKNPKKMVLNYTTNP | true (1)
* HMLKTADAIASVLLTRIQAGEFSAGRLPAERALSEAFSTTRITLREALGKLEAQGMIYRELRRGWFIA | false (0)
* HMNQTTYTVLYSGMDPADTGKVLTALNEMGVDARTQGEDTVLVPADRADEIRLELAAQGYPTS | true (1)
* HMDRNEFVSTLRAALTGAVSPAIVEDNVRYYQNYISQEIASGKSEKEVLDGLGDPRLIARTIIDT | true (1)
* HMSTKYSSNIISLVKGLMEEDQYKDLMGPPLKKEIIKKVESITDTFPYKFDKDDKEFIVKKVLISLRK | false (0)
